assay: Intrinsic clearance in human hepatocytes assessed per 10^6 cells at 1 uM up to 180 mins; format: ADME, cell-based, Hepatocyte; conditions: read-out: CLH
readout.name: hepatocyte CLint at 1 µM

Tell me hepatocyte CLint at 1 µM reported for `CC#Cc1cncc(-c2cc(Cl)c([C@]3(C)CC(=O)N(C)C(=N)N3)s2)c1` 2.7 µL/min/1e6 cells
